The measurements presented in this section are drawn from the CombiSolv-Exp solvation set (Vermeire and Green 2021).

So I've got a bunch of compounds here, and I need their solvation free energy, 298 K values.
test: solvent given as SMILES; conditions: in CN(C)C=O
Numbers only here, please. The scale is kcal/mol.

The reported solvation free energy, 298 K of the compound `Ic1ccccc1` was -7.09

The reported solvation free energy, 298 K of the compound `COC(=O)c1ccc(Cl)c(Cl)c1` was -9.19

The reported solvation free energy, 298 K of the compound `O=C(O)c1ccc(O)cc1` was -11.8

The reported solvation free energy, 298 K of the compound `O=C(O)c1ccccc1Cl` was -11.1

The reported solvation free energy, 298 K of the compound `FC(F)(Cl)C(F)(F)Cl` was -1.6

The reported solvation free energy, 298 K of the compound `CCC=C(C)C` was -3.12

The reported solvation free energy, 298 K of the compound `C#CCCCCCC` was -4.99
